Answer each item with its documented EC50.
- MEASURED ON: G protein-coupled receptor 119 (GPR-119) (Mesocricetus auratus)
- Construct: hamster-derived β-cells containing G protein-coupled receptor 119 (GPR-119), HIT-T15 cells; host or cells: HIT-T15 (hamster pancreatic β-cells)
- Sequence (A0A1U8CD06 1-334): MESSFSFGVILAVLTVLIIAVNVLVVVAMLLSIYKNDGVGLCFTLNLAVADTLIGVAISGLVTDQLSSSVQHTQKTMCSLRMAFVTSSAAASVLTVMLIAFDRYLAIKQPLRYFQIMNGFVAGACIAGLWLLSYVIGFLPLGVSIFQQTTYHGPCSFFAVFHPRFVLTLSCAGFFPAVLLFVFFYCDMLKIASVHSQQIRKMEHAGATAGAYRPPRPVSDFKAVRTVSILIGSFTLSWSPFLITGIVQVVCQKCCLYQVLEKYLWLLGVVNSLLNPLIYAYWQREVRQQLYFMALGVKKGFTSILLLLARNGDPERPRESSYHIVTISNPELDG
- EXPERIMENTAL PROTOCOL: cAMP activity in HIT-T15 cells (cAMP dynamic kit, FRET)
- Format: cell-based, hamster
- ASSAY CONDITIONS: EC50 value, Table 2
- Method: To check whether the cyclohexene derivatives according to the present invention activate cyclic adenosine monophosphate (cAMP), experiments were carried out, as follows. The HIT-T15 cells were plated on a 96-well plate at 60,000 cells per well. […] The cyclic adenosine monophosphate (cAMP) activity was measured according to the manufacturer's instruction using a cAMP dynamic kit commercially available from Cis Bio Inc. (Bedford, Mass.). […] Fluorescence was read in Flex Station (Molecular Devices). […]

Measured EC50 of CCc1cnc(N2CCC(COc3ccc(C4=CCC(C(=O)N5CCC(=O)CC5)CC4)cc3F)CC2)nc1 (stereo not shown) : ≤ 50 nM

Query CC(C)c1noc(N2CCC(COc3ccc(C4=CCC(C(=O)N5CCC(=O)CC5)CC4)cc3F)CC2)n1 (stereo not shown) yields EC50 of ≤ 50 nM

The reported value for CCc1cnc(N2CCC(COc3ccc(C4=CCC(C(=O)N5CCC6(CC5)OCCO6)CC4)cc3F)CC2)nc1 (stereo not shown) in terms of EC50 is ≤ 50 nM

EC50 recorded for this compound, CC(C)c1noc(N2CCC(COc3ccc(C4=CCC(C(=O)N5CCC6(CC5)OCCO6)CC4)cc3F)CC2)n1 (stereo not shown) , is ≤ 50 nM
